B1: S. cerevisiae Abp1 (full length; SH3 domain 535-592 mutated) / Hua2 (parent)
chain 1: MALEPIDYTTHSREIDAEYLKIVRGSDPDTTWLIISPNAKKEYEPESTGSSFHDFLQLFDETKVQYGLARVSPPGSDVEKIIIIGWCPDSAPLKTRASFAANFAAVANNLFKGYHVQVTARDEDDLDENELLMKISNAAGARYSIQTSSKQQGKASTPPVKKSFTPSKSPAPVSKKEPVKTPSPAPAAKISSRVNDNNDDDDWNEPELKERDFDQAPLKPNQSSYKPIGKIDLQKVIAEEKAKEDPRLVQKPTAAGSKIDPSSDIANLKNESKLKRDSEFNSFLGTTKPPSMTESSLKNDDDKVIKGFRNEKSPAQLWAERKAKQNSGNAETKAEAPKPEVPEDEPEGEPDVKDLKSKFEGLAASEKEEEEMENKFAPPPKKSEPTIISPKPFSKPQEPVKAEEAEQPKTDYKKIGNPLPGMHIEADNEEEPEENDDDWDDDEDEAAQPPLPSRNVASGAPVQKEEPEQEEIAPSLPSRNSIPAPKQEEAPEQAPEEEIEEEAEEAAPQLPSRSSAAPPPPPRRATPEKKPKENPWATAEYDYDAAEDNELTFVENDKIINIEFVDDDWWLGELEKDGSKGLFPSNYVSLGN
chain 2: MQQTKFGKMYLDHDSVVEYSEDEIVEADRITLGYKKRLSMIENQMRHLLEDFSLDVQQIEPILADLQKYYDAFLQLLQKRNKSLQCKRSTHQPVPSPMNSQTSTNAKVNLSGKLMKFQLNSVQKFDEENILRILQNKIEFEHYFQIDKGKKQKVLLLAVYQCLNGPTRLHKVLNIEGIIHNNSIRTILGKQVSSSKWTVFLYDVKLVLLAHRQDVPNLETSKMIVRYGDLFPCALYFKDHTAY

Variants of: B1
EXPERIMENT SUMMARY: DHFR protein-fragment complementation in yeast (Abp1-DHFR F[1,2] x partner-DHFR F[3]), deep mutational scanning, second methotrexate selection vs reference
CONDITION PARAMETERS: with Hua2; S. cerevisiae, DHFR-PCA selection in liquid with methotrexate at 30 C, two 72 h selections (the score uses the second); reference = the pre-selection culture; not an affinity; value at the no-binding floor (a bound); scale: DMS score: mean over two replicates of log2(f_test/f_ref + 0.5)/ln 2, minus the synonymous-codon median
Field: screen value. Provide a value for each of the variants that follow.
Just the number, please.

Could you tell me which screen value is on file for chain 1 I562G ?
-3.04

Field entry: chain 1 I559E
-3

Field entry: chain 1 Y587E
-2.98

Ok, now chain 1 G581K
-3.01

Now give it for chain 1 A537L too.
-3.02

Follow-up entry: chain 1 E550T
-3.03

Next record, please: chain 1 I562Y
-3.03

Repeat with chain 1 S585L
-2.99

Next up: chain 1 A539R
-3.02

And chain 1 G578W ?
-3.01

Same question, chain 1 A537I this time
-3.01
